Biological target: PD-1-Ig binding to PD-L1-TVMV-His (PD-L1-His) (Homo sapiens)
Construct: hPDL1(19-239)-TVMV-His; made in house; host or cells: HEK293T cells
Sequence (Q9NZQ7 with tags, fused parts or gaps): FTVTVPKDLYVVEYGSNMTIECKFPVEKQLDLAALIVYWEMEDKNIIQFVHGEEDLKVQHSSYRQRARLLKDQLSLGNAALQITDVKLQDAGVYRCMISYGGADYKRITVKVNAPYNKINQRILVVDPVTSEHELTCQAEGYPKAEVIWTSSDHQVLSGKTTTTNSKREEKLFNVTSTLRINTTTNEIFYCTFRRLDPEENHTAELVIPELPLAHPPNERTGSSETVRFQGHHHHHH
Assay: PD-1/PD-L1 Homogenous Time-Resolved Fluorescence (HTRF) binding assay
Conditions: PD-1-Ig (20 nM) / PD-L1-His (10 nM); range classes
Result type: IC50

// query Give recorded IC50 with PD-1-Ig binding to PD-L1-TVMV-His (PD-L1-His) (Homo sapiens) for the following compound: `CCCC[C@H]1C(=O)N(C)[C@@H](CCCC)C(=O)N[C@@H](CC(C)C)C(=O)N[C@H](C(=O)NCC(N)=O)CCNCC(=O)N[C@@H](Cc2ccc(O)cc2)C(=O)N(C)[C@@H](C)C(=O)N[C@@H](CC(N)=O)C(=O)N2CCC[C@H]2C(=O)N[C@@H](Cc2cnc[nH]2)C(=O)N[C@@H](CCC(N)=O)C(=O)N2C[C@H](O)C[C@H]2C(=O)N[C@@H](Cc2c[nH]c3ccccc23)C(=O)NCC(=O)N[C@@H](Cc2c[nH]c3ccccc23)C(=O)N1C`
// result 10 to 99 nM
